test-details: Cytotoxicity assay (MTT)
Format: cell-based
condition-label: human, HepG2 cells, read-out: CytoTox HepG2 (CC50)
reported-metric: CC50 at 24 h

Entry CN(C(=O)CN1CCN(c2nc(=O)c3cc(C(F)(F)F)cc([N+](=O)[O-])c3s2)CC1)c1ccccc1 , CC50 at 24 h reported as > 100 µM

* * *

System: HepG2
test-details: Cytotoxicity assay (MTT)
Type: cell-based
condition-label: 24 hours, read-out: CytoTox HepG2 (CC50)
reported-metric: CC50

# compound CC1COC2(CCN(c3nc(=O)c4cc(C(F)(F)F)cc([N+](=O)[O-])c4s3)CC2)O1 (stereo not shown) [Cpd 1 of WO 2007/134625, reference compound] ; its CC50 = > 100 µM

* * *

Tested on: HEK293
test-details: Cytotoxicity assay (MTT)
Format: cell-based
condition-label: 24 hours, read-out: CytoTox HEK293 (CC50)
reported-metric: CC50

Record summary for CC1COC2(CCN(c3nc(=O)c4cc(C(F)(F)F)cc([N+](=O)[O-])c4s3)CC2)O1 (stereo not shown) [Cpd 1 of WO 2007/134625, reference compound] : reported CC50 = > 100 µM

These entries and their values trace back to patent EP2468746A1.
